Form field: Mn^2+ MFI (one value per entry).
Target: human Mac-1 (integrin αMβ2, CD11b/CD18) (human, UniProt P11215 17-1152; P05107 23-769)
Experiment: flow cytometry, HEK293/Mac-1 cells (clone 1-4), PBS/MnCl2 (Mn2+)
Procedure: The HEK293/Mac-1 cells (clone1-4) were counted and washed twice with staining buffer (PBS containing 1% FBS, and 0.1% sodium azide). Cells were adjusted at a concentration of 1×10⁵ cells/ml in staining buffer and treated with/without 0.25 mM MnCl₂ (Sigma). […] After washing with the staining buffer, the cells were analyzed by flow cytometry. […] After washing with the staining buffer, the cells were analyzed by flow cytometry. […]
Please give a number only; it is taken to be in MFI.

These recorded examples may help you get a feel for the data.
{"columns": ["Binder", "Numeric Value"],
 "data": [
  ["anti-Mac-1 antibody clone DF4M-31 (antibody, human IgG4, V domains shown) VH: EVQLVESGGGLVQPGGSLRLSCAASGFTFTSATMSWVRQAPGKGLEWVSIISPGGSETYYADSVKGRFTISRDNSKNTLYLQMNSLRAEDTAVYYCARGGDYPSYYMDPWGQGTLVTVSS VL: DIQMTQSPSSLSASVGDRVTITCRASQSISNYLAWYQQKPGKAPKLLIYGTSSLQSGVPSRFSGSGSGTDFTLTISSLQPEDFATYYCQQGHQWPWTFGQGTKVEIK", 13000],
  ["anti-Mac-1 antibody clone 27A04 (antibody, human IgG4, V domains shown) VH: QVKLQQSGPELVKPGASVKISCKASGYSFTDYNMNWVKQSNGKSLEWIGVINPNYGTTSYNQKFKGKATLTVDQSSSTAYMQLNSLTSEDSAVYYCARTYDYDGDAFAYWGQGTTVTVSS VL: DIELTQSPAIMSASPGEKVTMTCSASSSVSYMHWYQQKSGTSPKRWIYDTSKLASGVPARFSGSGSGTSYSLTISSMEAEDAATYYCQQWSSNPPTFGAGTKLELK", 39800],
  ["anti-Mac-1 antibody clone DF4-25 (antibody, human IgG4, V domains shown) VH: EVQLVESGGGLVQPGGSLRLSCAASGFTFKDYWLSWVRQAPGKGLEWVSIINYGGSETYYADSVKGRFTISRDNSKNTLYLQMNSLRAEDTAVYYCARTQTSYVMDYWGQGTLVTVSS VL: DIQMTQSPSSLSASVGDRVTITCRASQSVRSGLNWYQQKPGKAPKLLIYAASSLQSGVPRRFSGSGSGTDFTLTISSLQPEDFATYYCMQSHSWPLTFGQGTKVEIK", 30500],
  ["anti-Mac-1 antibody clone 28E07 (antibody, human IgG4, V domains shown) VH: QVQLQQSGPELVKPGASVKISCKASGYSFTDYNMNWVKQSNGKSLEWIGEINPGYGTSRYNQKFKDKATLTVDQSSTTAYMQLNSLTSEDSAVYYCARADVDYGDVMDYWGQGTTVTVSS VL: DIELTQSPAIMSASPGEKVTMTCSASSSVSYMHWYQQKSGTSPKRWIYDTSKLASGVPTRFSGSGSGTSYSLTISSMEAEDAATYYCQQWSSNPPTFGAGTKLELK", 56400]
]}

Query: Entry anti-Mac-1 antibody clone 28E07-HH (antibody, human IgG4, V domains shown) VH: QVQLVQSGAEVKKPGASVKVSCKASGYSFTDYNMNWVRQAPGQGLEWMGEINPGYGTSRYNQKFKDRVTMTRDTSISTAYMELSRLRSDDTAVYYCARADVDYGDVMDYWGQGTLVTVSS VL: EIVLTQSPATLSLSPGERATLSCSASSSVSYMHWYQQKPGQAPRLLIYDTSKLASGIPARFSGSGSGTDFTLTISSLEPEDFAVYYCQQWSSNPPTFGQGTKLEIK has what Mn^2+ MFI?
Reply: 1.02e+06

Entry source: patent US20240084017A1
